Molecular target: D(1A) dopamine receptor (Homo sapiens) (UniProt P21728)
Sequence (P21728 whole entry, looked up): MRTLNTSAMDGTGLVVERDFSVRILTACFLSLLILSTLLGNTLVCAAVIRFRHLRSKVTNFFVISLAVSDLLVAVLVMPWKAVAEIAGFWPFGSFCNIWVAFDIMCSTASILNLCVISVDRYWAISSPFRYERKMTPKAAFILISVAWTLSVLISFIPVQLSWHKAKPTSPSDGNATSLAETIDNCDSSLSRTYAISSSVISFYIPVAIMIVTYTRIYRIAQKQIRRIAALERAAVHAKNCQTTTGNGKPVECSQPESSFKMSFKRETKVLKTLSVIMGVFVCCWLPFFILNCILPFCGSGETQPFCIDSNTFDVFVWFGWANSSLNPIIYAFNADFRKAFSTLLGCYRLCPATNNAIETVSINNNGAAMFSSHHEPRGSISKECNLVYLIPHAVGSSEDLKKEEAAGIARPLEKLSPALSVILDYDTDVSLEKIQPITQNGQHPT
Assay: Antagonist of Human D 1 Dopamine Receptor: qHTS; further: on the % scale 0 is the no-effect control and ±100 the full control effect
Conditions: HEK293 TREx D1 cells, calcium flux, dopamine EC80; at 10 µM
Description: Dopamine receptors (DARs) are involved in the etiology and/or therapy of a number of neuropsychiatric and endocrine disorders. […] Freshly passaged cells are plated in 1536 well black, clear bottom plates at a density of 4000 cells/well in 3 ul of complete media containing 1x tetracycline inducer. […] Agonist read: A 10 cycle (1 second/cycle) baseline measurement is taken and then the FDSS online 1536 pintool delivers 23 nl of compound library (as well as dopamine controls) to the plate. […]
Screen size: about 360,000 compounds; about 11,000 (3.1%) were called active. No stated cut-off is given here; in the data, active means activity change below about -30%; inactive means the rest. The full list was thinned out, with actives kept by preference.
# valid calls are class 1 for active, class 0 for inactive; nothing else

Example cases with answers are listed next.
Compound	Experimental System	Assigned Class
Cn1c(SCC(=O)N2CCCCC2)nc2c(c1=O)SCC2	D(1A) dopamine receptor (Homo sapiens) (UniProt P21728)	class 0
CCc1ccccc1NC(=O)c1ccc2nc(CCc3ccccc3)oc2c1	D(1A) dopamine receptor (Homo sapiens) (UniProt P21728)	class 0
CCOc1ccc(CCNC(=O)CN(c2ccc(C)cc2)S(=O)(=O)N(C)C)cc1OCC	D(1A) dopamine receptor (Homo sapiens) (UniProt P21728)	class 0
Cc1cccc(CSc2nnc(C)c(=O)n2N)c1	D(1A) dopamine receptor (Homo sapiens) (UniProt P21728)	class 0
Cc1cccc(CSc2nc3c(c(=O)n2C)SCC3)c1	D(1A) dopamine receptor (Homo sapiens) (UniProt P21728)	class 1
CC(C)Sc1oc(-c2cccs2)nc1S(=O)(=O)c1ccc(Cl)cc1	D(1A) dopamine receptor (Homo sapiens) (UniProt P21728)	class 0
COc1ccc(Cl)cc1C(=O)OCC(=O)NCc1cccs1	D(1A) dopamine receptor (Homo sapiens) (UniProt P21728)	class 0
COc1cccc(CNC(=O)CCc2nc(-c3ccc(C)cc3)no2)c1	D(1A) dopamine receptor (Homo sapiens) (UniProt P21728)	class 0
COc1ccccc1N1CCN(C2C(=O)c3ccccc3N2C(C)=O)CC1 (stereo unspecified)	D(1A) dopamine receptor (Homo sapiens) (UniProt P21728)	class 0
NS(=O)(=O)c1ccc(NC(=O)COc2ccc(S(=O)(=O)NC3CCCCC3)cc2)cc1	D(1A) dopamine receptor (Homo sapiens) (UniProt P21728)	class 0

Then this compound:
Ask: # lookup: test call for Cc1cn(C)c(CC(=O)NCc2ccc(Cl)cc2)c1C(=O)O
Result: class 0
